tgt: hERG (Homo sapiens)
Sequence (Q12809 whole entry): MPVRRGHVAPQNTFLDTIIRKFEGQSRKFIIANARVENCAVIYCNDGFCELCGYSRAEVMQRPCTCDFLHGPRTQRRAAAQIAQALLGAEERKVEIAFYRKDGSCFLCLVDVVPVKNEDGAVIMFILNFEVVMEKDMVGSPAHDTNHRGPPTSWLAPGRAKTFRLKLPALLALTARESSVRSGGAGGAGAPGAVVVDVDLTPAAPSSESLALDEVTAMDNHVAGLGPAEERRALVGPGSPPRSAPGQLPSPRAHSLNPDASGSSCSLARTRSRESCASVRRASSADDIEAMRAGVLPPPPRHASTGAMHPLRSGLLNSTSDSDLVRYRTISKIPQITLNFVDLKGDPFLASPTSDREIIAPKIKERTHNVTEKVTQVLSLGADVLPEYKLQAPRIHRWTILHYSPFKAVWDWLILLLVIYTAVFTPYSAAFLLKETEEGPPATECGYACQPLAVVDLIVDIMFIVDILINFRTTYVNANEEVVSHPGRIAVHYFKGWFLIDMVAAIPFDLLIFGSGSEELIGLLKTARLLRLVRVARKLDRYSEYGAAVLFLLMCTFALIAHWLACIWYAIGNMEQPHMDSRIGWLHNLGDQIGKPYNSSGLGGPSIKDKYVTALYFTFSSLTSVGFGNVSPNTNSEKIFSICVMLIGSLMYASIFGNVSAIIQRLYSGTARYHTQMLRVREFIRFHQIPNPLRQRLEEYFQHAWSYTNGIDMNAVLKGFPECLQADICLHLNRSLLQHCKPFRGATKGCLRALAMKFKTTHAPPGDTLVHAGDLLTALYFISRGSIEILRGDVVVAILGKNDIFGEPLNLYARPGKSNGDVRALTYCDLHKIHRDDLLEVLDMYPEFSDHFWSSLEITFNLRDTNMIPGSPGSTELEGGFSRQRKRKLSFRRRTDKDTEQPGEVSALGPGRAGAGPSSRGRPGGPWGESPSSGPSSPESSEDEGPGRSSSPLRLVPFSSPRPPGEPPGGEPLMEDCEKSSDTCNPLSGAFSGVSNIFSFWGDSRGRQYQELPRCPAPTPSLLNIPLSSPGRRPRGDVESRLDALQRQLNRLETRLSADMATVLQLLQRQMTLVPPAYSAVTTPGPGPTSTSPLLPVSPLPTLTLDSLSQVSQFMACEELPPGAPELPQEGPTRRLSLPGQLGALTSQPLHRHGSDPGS
assay_comment: Inhibition of hERG at 10 uM by CEREP analysis relative to control
Type: toxicity
Kindly return fulfilled if reported inhibition at 10 µM is no lower than 10%; return not fulfilled if it is lower.

Observe how each entry below is paired with its result.
INSERT INTO results (smiles_input, tgt, qualitative_label) VALUES
  ('CNCCOc1cc2nccc(Oc3c(F)cc(NC(=O)c4cnccc4OC)cc3F)c2cc1OC', 'hERG (Homo sapiens)', 'fulfilled'),
  ('COc1cc2nccc(Oc3c(F)cc(NC(=O)c4cnccc4OC)cc3F)c2cc1OCCO', 'hERG (Homo sapiens)', 'not fulfilled'),
  ('COc1cc2c(Oc3c(F)cc(NC(=O)c4cnccc4OC4CC4)cc3F)ccnc2cc1OCCO', 'hERG (Homo sapiens)', 'fulfilled'),
  ('COc1cc2c(Oc3c(F)cc(NC(=O)c4cnccc4OC)cc3F)ccnc2cc1OCCO', 'hERG (Homo sapiens)', 'not fulfilled');

IN: Hello, I need to know if `COc1cc2nccc(Oc3c(F)cc(NC(=O)c4cnccc4OC)cc3F)c2cc1O[C@@H](C)CO` has measured inhibition at 10 µM not below 10%. Thanks!
OUT: fulfilled
